test: protein stability index of a GFP-peptide fusion (yeast GPS) (PSI 1-4); higher = more stable; sorted into four equal gates, so the index is relative within each strain; conditions: ubr1∆
Lab note: compare protein stability index against 2. Equal or greater, write yes. Smaller, write no.

Does the reported protein stability index for LLDAYSHIESDSTSHNN [MED1] fall at or above the 2 mark?
yes

Does the reported protein stability index for KGKKGQKKRVVDPFTRK [RPS1A] fall at or above the 2 mark?
yes

Does the reported protein stability index for VDIQIINQYQLLYNLKN [SWI1] fall at or above the 2 mark?
no

More entries:
Does the reported protein stability index for QLIKVAVHNGGRKHVAA [RPL9A] fall at or above the 2 mark?
yes

Does the reported protein stability index for MKWDFAKDIKGYGTQKI [PRE4] fall at or above the 2 mark?
no

Does the reported protein stability index for DAVEGVSECIILGQTMS [RPO31] fall at or above the 2 mark?
no

Does the reported protein stability index for IPSQRGTSTTHGSISPQ [SIR3] fall at or above the 2 mark?
yes

Does the reported protein stability index for FEGWGHEYIRHLALEIG [RPN1] fall at or above the 2 mark?
yes

Does the reported protein stability index for FQALDSEETQFKYVEDR [ITC1] fall at or above the 2 mark?
yes

Does the reported protein stability index for EELLLKDLEIRKLEISS [GAL11] fall at or above the 2 mark?
no

Does the reported protein stability index for TLKNRGLPLGIAEEKMW [YGR119C/NUP57] fall at or above the 2 mark?
no

Does the reported protein stability index for LKEVPTYRYVSVSVLVD [RPS25A] fall at or above the 2 mark?
no

Does the reported protein stability index for GNIVAELAQDPQTMEHY [YCS4] fall at or above the 2 mark?
yes

Does the reported protein stability index for ILNELEVFIGRVKDQDG [YJR042W/NUP85] fall at or above the 2 mark?
yes
